assayProcedure: Plasma pharmacokinetics after a single dose of liquid or solid oat product (compartmental PK model)
Assay type: in vivo, humans
Design: unit not given here
measurementSetup: solid, single dose, distribution volume over bioavailability
propertyMeasured: V/F

compound	assayResult
COc1cc(/C=C/C=C/C(=O)Nc2ccc(O)cc2C(=O)O)ccc1O	314
CC1OC(OC2C(OC3CCC4(C)C(=CCC5C4CCC4(C)C5CC5OC6(CCC(C)(COC7OC(CO)C(O)C(O)C7O)O6)C(C)C54)C3)OC(CO)C(OC3OC(CO)C(O)C(OC4OC(CO)C(O)C(O)C4O)C3O)C2O)C(O)C(O)C1O (stereo not shown) [AVE B, Avenacoside B]	2606
O=C(/C=C/c1ccc(O)cc1)Nc1ccc(O)cc1C(=O)O	250

[1] O=C(/C=C/C=C/c1ccc(O)cc1)Nc1ccc(O)cc1C(=O)O
[2] O=C(/C=C/c1ccc(O)c(O)c1)Nc1ccc(O)cc1C(=O)O
[3] COc1cc(/C=C/C(=O)Nc2ccc(O)cc2C(=O)O)ccc1O
Incoming: Sort the 3 compounds by V/F; largest first, smallest last. Quick reminder: the answer is the labels in the order asked.
Outgoing: 3, 2, 1
(3: 2561, 2: 698, 1: 189)

---

assayProcedure: Plasma pharmacokinetics after a single dose of liquid or solid oat product (compartmental PK model)
Assay type: in vivo, humans
measurementSetup: both sexes, human, plasma, oral, 62 g of oat flakes; solid, single dose, elimination rate (Table 2); read-out: ke (converted)
propertyMeasured: k el (s⁻¹)

[P] O=C(/C=C/c1ccc(O)c(O)c1)Nc1ccc(O)cc1C(=O)O
[Q] O=C(/C=C/c1ccc(O)cc1)Nc1ccc(O)cc1C(=O)O
Incoming: Exercise: compare P and Q ; which one has the greater k el? Return value: the label identifying the chosen record.
Outgoing: Q

---

assayProcedure: Plasma pharmacokinetics after a single dose of liquid or solid oat product (compartmental PK model)
Assay type: in vivo, humans
measurementSetup: solid, single dose, absorption rate (Table 2)
Protocol: A non-blinded, randomized two-way crossover study with two different oat products (solid or liquid) was designed to investigate the AVA and AVE PK after a single dose and after repeated dosing at three different doses, for respective food (Fig. 2). […] In all cases the time of oat intake was recorded in a food journal. […] Compliance was assessed based on information provided in a compliance journal during the study weeks as well as through 2-day food records. […]
propertyMeasured: ka (h⁻¹)

Record excerpt, results attached:
compound	assayResult
O=C(/C=C/c1ccc(O)c(O)c1)Nc1ccc(O)cc1C(=O)O	2.8
COc1cc(/C=C/C(=O)Nc2ccc(O)cc2C(=O)O)ccc1O	3.8
O=C(/C=C/c1ccc(O)cc1)Nc1ccc(O)cc1C(=O)O	1.50
CC1OC(OC2C(OC3CCC4(C)C(=CCC5C4CCC4(C)C5CC5OC6(CCC(C)(COC7OC(CO)C(O)C(O)C7O)O6)C(C)C54)C3)OC(CO)C(OC3OC(CO)C(O)C(OC4OC(CO)C(O)C(O)C4O)C3O)C2O)C(O)C(O)C1O (stereo not shown) [AVE B, Avenacoside B]	0.46
CC1OC(OC2C(OC3CCC4(C)C(=CCC5C4CCC4(C)C5CC5OC6(CCC(C)(COC7OC(CO)C(O)C(O)C7O)O6)C(C)C54)C3)OC(CO)C(OC3OC(CO)C(O)C(O)C3O)C2O)C(O)C(O)C1O (stereo not shown) [AVE A, Avenacoside A]	2.3

[a] COc1cc(/C=C/C=C/C(=O)Nc2ccc(O)cc2C(=O)O)ccc1O
[b] O=C(/C=C/C=C/c1ccc(O)cc1)Nc1ccc(O)cc1C(=O)O
Incoming: Endpoint returns whichever of a and b has the numerically higher ka. Your choice should be expressed through its label.
Outgoing: a
